Entry source: patent US8435998B2

Protocol description: Equilibrium solubility method in water
Type: physicochemical
Measurement parameters: thermodynamic from solid; saturated solution in water, stirred overnight, 0.45 μm filtered, UV 260 nm
Test readout: solubility (µg/mL)
# unit: µg/mL | format: bare number

# get_value(readout='solubility', item= CC[C@@H]([C@H](C)O)n1ncn(-c2ccc(N3CCN(c4ccc(OC[C@@H]5CO[C@@](Cn6cncn6)(c6ccc(F)cc6F)C5)cc4)CC3)cc2)c1=O [Crystalline Form IV] )
2.1
